- assay_system: Recombinant human His-tagged Trim24-PHD-bromodomain (Homo sapiens)
- Construct: Recombinant human His-tagged Trim24-PHD-bromodomain (produced in-house)
- Sequence (O15164 824-1006 limits assumed): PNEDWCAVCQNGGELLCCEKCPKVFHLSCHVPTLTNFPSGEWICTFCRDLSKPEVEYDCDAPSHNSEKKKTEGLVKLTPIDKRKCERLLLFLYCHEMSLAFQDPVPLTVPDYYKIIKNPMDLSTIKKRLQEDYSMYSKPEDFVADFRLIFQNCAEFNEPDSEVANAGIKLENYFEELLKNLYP
- assay_procedure: Trim24 AlphaScreen Assay
- cond: 5 nM Trim24 protein, 15 nM biotinylated H3K23ac (1-33aa) peptide
measurement_label: IC50

{"columns": ["molecule", "IC50"],
 "data": [
  ["COCC(C)(O)COc1cccc(Oc2cc3c(cc2NS(=O)(=O)c2cn(C)cn2)n(C)c(=O)n3C)c1 (stereo not drawn)", "100 to 1000 nM"]
]}

// field: IC50; key: CCCOc1cc(OCCCCCCO)cc(Oc2cc3c(cc2NS(=O)(=O)c2cccnc2)n(C)c(=O)n3C)c1 ; value = 10 to 100 nM

// field: IC50; key: Cc1nc(S(=O)(=O)Nc2cc3c(cc2Oc2cccc(OCCCO)c2)n(C)c(=O)n3C)cn1C ; value = 100 to 1000 nM

// field: IC50; key: CCCOc1cccc(Oc2cc3c(cc2NS(=O)(=O)c2cccc(OC/C=C/CCCN)c2)n(C)c(=O)n3C)c1 [Example 243, 2,2,2-trifluoroacetate] ; value = 10 to 100 nM

// field: IC50; key: C=CCOc1cccc(S(=O)(=O)Nc2cc3c(cc2Oc2cccc(OCCC)c2)n(C)c(=O)n3C)c1 ; value = 100 to 1000 nM

// field: IC50; key: COc1ccc(S(=O)(=O)Nc2cc3c(cc2Oc2cccc(OCc4ccccn4)c2)n(C)c(=O)n3C)cc1OC ; value = 100 to 1000 nM

// field: IC50; key: CCCOc1cccc(Oc2cc3c(cc2NS(=O)(=O)c2cccc(OC)c2)n(C)c(=O)n3C)c1 ; value = 100 to 1000 nM

// field: IC50; key: COc1ccc(S(=O)(=O)Nc2cc3c(cc2Oc2cc(OCCCCN(C)C)cc(OCC(F)(F)F)c2)n(C)c(=O)n3C)cc1OC ; value = 1 to 10 nM

// field: IC50; key: Cc1nc(S(=O)(=O)Nc2cc3c(cc2Oc2ccc(F)c(OCC4CC4)c2)n(C)c(=O)n3C)cn1C ; value = > 1000 nM

// field: IC50; key: CCn1cnc(S(=O)(=O)Nc2cc3c(cc2Oc2cccc(OCc4ccccc4)c2)n(C)c(=O)n3C)c1 ; value = 100 to 1000 nM

// field: IC50; key: Cn1cnc(S(=O)(=O)Nc2cc3c(cc2Oc2cccc(OCCCCN)c2)n(C)c(=O)n3C)c1 ; value = 100 to 1000 nM

// field: IC50; key: CCCOc1cc(OCCCOC)cc(Oc2cc3c(cc2NS(=O)(=O)c2ccc(OC(F)F)cc2)n(C)c(=O)n3C)c1 ; value = 100 to 1000 nM

// field: IC50; key: Cn1ccnc1S(=O)(=O)Nc1cc2c(cc1Oc1cccc(OCc3ccccc3)c1)n(C)c(=O)n2C ; value = > 1000 nM

----------
Entries and their pIC50
- assay_system: Recombinant human His-tagged Trim24-PHD-bromodomain (Homo sapiens, UniProt O15164)
- Construct: Recombinant human His-tagged Trim24-PHD-bromodomain (produced in-house)
- assay_procedure: Trim24 AlphaScreen Assay
- cond: 5 nM Trim24 protein, 15 nM biotinylated H3K23ac (1-33aa) peptide
pIC50: −log10 of the molar value.

Past entries and their recorded results:
{"columns": ["molecule", "value_reported"],
 "data": [
  ["Cn1c(=O)n(C)c2cc(Oc3cccc(OCc4ccccc4)c3)c(NS(C)(=O)=O)cc21", "< 6.00"],
  ["CCCOc1cc(OCCCCCCN)cc(Oc2cc3c(cc2NS(=O)(=O)c2cccc(C#N)c2)n(C)c(=O)n3C)c1", "7.00 to 8.00"],
  ["CCCOc1cc(OCCCOC)cc(Oc2cc3c(cc2NS(=O)(=O)c2cn(C)c(Cl)n2)n(C)c(=O)n3C)c1", "7.00 to 8.00"],
  ["CCCOc1cc(OCCCCN2CCOCC2)cc(Oc2cc3c(cc2NS(=O)(=O)c2ccc(OC)c(OC)c2)n(C)c(=O)n3C)c1 [Example 246, 2,2,2-trifluoroacetate]", "7.00 to 8.00"],
  ["Cc1cc(OCC(C)C)cc(Oc2cc3c(cc2NS(=O)(=O)c2cn(C)cn2)n(C)c(=O)n3C)c1", "7.00 to 8.00"],
  ["Cn1cnc(S(=O)(=O)Nc2cc3c(cc2Oc2cccc(OCc4cccnc4)c2)n(C)c(=O)n3C)c1", "6.00 to 7.00"]
]}

// field: pIC50; key: CCCOc1cc(OCCCOC)cc(Oc2cc3c(cc2NS(=O)(=O)c2ccc(OC)cc2)n(C)c(=O)n3C)c1 ; value = 6.00 to 7.00

// field: pIC50; key: COCCCOc1cc(OCCCOC)cc(Oc2cc3c(cc2NS(=O)(=O)c2ccc(OC)c(OC)c2)n(C)c(=O)n3C)c1 ; value = 7.00 to 8.00

// field: pIC50; key: CCCOc1cc(OCCCOC)cc(Oc2cc3c(cc2NS(=O)(=O)c2cnn(CC)c2)n(C)c(=O)n3C)c1 ; value = 7.00 to 8.00

----------
- assay_system: Recombinant human His-tagged Trim24-PHD-bromodomain (Homo sapiens, UniProt O15164)
- Construct: Recombinant human His-tagged Trim24-PHD-bromodomain (produced in-house)
- assay_procedure: Trim24 AlphaScreen Assay
- cond: 5 nM Trim24 protein, 15 nM biotinylated H3K23ac (1-33aa) peptide
measurement_label: IC50

// field: IC50; key: CCCOc1cc(OCCCCCCO)cc(Oc2cc3c(cc2NS(=O)(=O)c2ccc(OC)c(OC)c2)n(C)c(=O)n3C)c1 ; value = 10 to 100 nM

// field: IC50; key: Cc1ncc(S(=O)(=O)Nc2cc3c(cc2Oc2cccc(OCc4ccccc4)c2)n(C)c(=O)n3C)s1 ; value = 100 to 1000 nM

// field: IC50; key: CC(C)COc1ccc(S(=O)(=O)Nc2cc3c(cc2Oc2cccc(OCc4ccccc4)c2)n(C)c(=O)n3C)cc1 ; value = > 1000 nM

// field: IC50; key: CCCOc1cc(OCCCOC)cc(Oc2cc3c(cc2NS(=O)(=O)c2cccc(C#N)c2)n(C)c(=O)n3C)c1 ; value = 10 to 100 nM

// field: IC50; key: CCCOc1cc(OCCCCN)cc(Oc2cc3c(cc2NS(=O)(=O)c2cnn(C)c2C)n(C)c(=O)n3C)c1 ; value = 10 to 100 nM

// field: IC50; key: COC(C)(CO)COc1cccc(Oc2cc3c(cc2NS(=O)(=O)c2cn(C)cn2)n(C)c(=O)n3C)c1 (centres unmarked) ; value = 100 to 1000 nM

// field: IC50; key: Cc1nc(S(=O)(=O)Nc2cc3c(cc2Oc2cccc(OCCC(C)C)c2)n(C)c(=O)n3C)cn1C ; value = 100 to 1000 nM

----------
- assay_system: Recombinant human His-tagged Trim24-PHD-bromodomain (Homo sapiens)
- Construct: Recombinant human His-tagged Trim24-PHD-bromodomain (produced in-house)
- assay_procedure: Trim24 AlphaScreen Assay
- cond: 5 nM Trim24 protein, 15 nM biotinylated H3K23ac (1-33aa) peptide
measurement_label: IC50

Past entries and their recorded results:
{"columns": ["molecule_smiles", "assay_system", "value_reported"],
 "data": [
  ["CCCOc1cc(OCCCOC)cc(Oc2cc3c(cc2NS(=O)(=O)c2ccc(OCC)c(C)c2)n(C)c(=O)n3C)c1", "Recombinant human His-tagged Trim24-PHD-bromodomain (Homo sapiens)", "100 to 1000 nM"],
  ["Cn1cnc(S(=O)(=O)Nc2cc3c(cc2Oc2cccc(OCC(C)(C)O)c2)n(C)c(=O)n3C)c1", "Recombinant human His-tagged Trim24-PHD-bromodomain (Homo sapiens)", "100 to 1000 nM"]
]}

With Recombinant human His-tagged Trim24-PHD-bromodomain (Homo sapiens) as the test system, CCCOc1cc(OCCCOC)cc(Oc2cc3c(cc2NS(=O)(=O)c2cn(C)cn2)n(C)c(=O)n3C)c1 showed IC50 of 10 to 100 nM

With Recombinant human His-tagged Trim24-PHD-bromodomain (Homo sapiens) as the test system, CCCOc1cccc(Oc2cc3c(cc2NS(=O)(=O)CCOC)n(C)c(=O)n3C)c1 showed IC50 of 100 to 1000 nM

With Recombinant human His-tagged Trim24-PHD-bromodomain (Homo sapiens) as the test system, CCCOc1cccc(Oc2cc3c(cc2NS(=O)(=O)c2c[nH]cn2)n(C)c(=O)n3C)c1 showed IC50 of 10 to 100 nM

With Recombinant human His-tagged Trim24-PHD-bromodomain (Homo sapiens) as the test system, CCCOc1ccc(OC)c(Oc2cc3c(cc2NS(=O)(=O)c2cn(C)cn2)n(C)c(=O)n3C)c1 showed IC50 of 100 to 1000 nM

With Recombinant human His-tagged Trim24-PHD-bromodomain (Homo sapiens) as the test system, COc1ccc(S(=O)(=O)Nc2cc3c(cc2Oc2cccc(OCc4ccncc4)c2)n(C)c(=O)n3C)cc1OC showed IC50 of 100 to 1000 nM
